# target.entity: Ferritin light chain (Equus caballus)
# protocol.notes: Confirmation Assay for Identification of Novel General Anesthetics; note: potency is the fitted concentration of half-maximal effect; nearly all actives have a fitted effect of over 40% in size
# condition.details: apoferritin 1-aminoanthracene fluorescence displacement
Inconclusive results are not listed. Calls of active or inactive are those of the source. Calls come from the whole dose curve; as a rule, active = well fitted inhibition curve with a large enough effect; inconclusive = small, poorly fitted or top-dose-only effect; inactive = flat fitted curve, though single readings scatter.
attribute.measured: Potency

Form: compound = CCN(C(=O)c1ccco1)C1C2CC3CC(C2)CC1C3 (configuration not stated) ; Potency = 14.1 µM (active)

Form: compound = CC(C)c1ccc(NC(=O)C2CC3CCC2C3)cc1 (configuration not stated) ; Potency = 31.6 µM (active)

Form: compound = COc1ccc(CNC(=O)COC(=O)CCC2CCCCC2)cc1 ; Potency = 15.8 µM (active)

Form: compound = O=C(Cn1sc2ccccc2c1=O)NC12CC3CC(CC(C3)C1)C2 ; Potency = 15.8 µM (active)

Form: compound = Nc1ccc(Nc2ccccc2)c(Cl)c1 ; Potency = 12.6 µM (active)

Form: compound = Cn1cc(Br)c(C(=O)NC2C3CC4CC(C3)CC2C4)n1 (configuration not stated) ; Potency = 10 µM (active)

Form: compound = O=C(CSc1ccccn1)N1CCc2ccccc21 ; Potency = 8.91 µM (active)

Form: compound = O=C(CCSc1ccccc1)NC(=O)COC(=O)C1CCCCC1 ; Potency = 35.5 µM (active)

Form: compound = CC1CCCN(C(=O)COc2ccc(Nc3ccccc3)cc2)C1 (configuration not stated) ; Potency = 25.1 µM (active)

Form: compound = O=C(CCC1CCCCC1)Nc1nncs1 ; Potency = 15.8 µM (active)

Form: compound = Nc1nc(SCC(=O)C23CC4CC(CC(C4)C2)C3)n[nH]1 ; Potency = 7.08 µM (active)

Form: compound = Cc1cc(NS(=O)(=O)c2ccccc2)cc(Cl)c1O ; Potency = 11.2 µM (active)

Form: compound = Cc1ccc(Cn2cccc(NC(=O)NCc3ccccc3)c2=O)cc1 ; Potency = 7.08 µM (active)

Form: compound = O=C(Nc1cccc(Cl)c1)OCc1cncs1 ; Potency = 15.8 µM (active)

Form: compound = Fc1ccc(NCc2ccccc2F)cc1Cl ; Potency = 14.1 µM (active)
